# Assay Details: Toxicity liver stage against HepG2, at 10uM
# Type: cell-based
# Design: test concentration 10 uM, cell line HepG2-A16-CD81EGFP
# Run Parameters: human, HepG2-A16-CD81EGFP cells; read-out: INHIBITION

Compound | cytotoxicity at 10 µM, %
CN(C)C(=O)c1cccc(NC(=O)N(CCO)Cc2ccsc2)c1 | -13.4
Cc1ccc(CN2CCCC3(CCN(S(C)(=O)=O)C3)C2)o1 (stereo unspecified) | 2.21
O=c1c2sccc2nc2n1CCN(Cc1cccs1)CC2 | 4.27
Cc1ccc(C(=O)N2CCC3(CCN(Cc4ccccn4)C3=O)C2)cn1 (stereo unspecified) | -145
COc1ccccc1Oc1ncccc1CNC(=O)[C@H](N)CC(C)(C)C | -1.73
COC(=O)c1ccc(S(=O)(=O)N2CCC(Oc3cccnn3)CC2)cc1 | -4.83
Clc1ccc2[nH]c3c(c2c1)CCCC3c1nn[nH]n1 (stereo unspecified) | -4.13
Cc1nn(C)c(C)c1OCC(=O)N1CCCCC1 | 2.23
CC(=O)N(C)C1CCN(C(=O)NCCc2cc(F)ccc2F)CC1 | -7.76
COc1cccc(-n2cc(-c3ccnc(N[C@@H](CO)C(C)C)n3)cn2)c1 | -1.15
CCOC(=O)c1ccc(CNC(=O)c2ccncc2Cl)o1 | 6.93
